- System: E. faecium (ATCC 19434)
- experiment.description: MIC susceptibility testing
- Assay type: cell-based
- condition.parameters: Enterococcus faecium, ATCC19434; read-out: E. faecium (ATCC 19434) MIC
Catalogue of MIC values
Form entry: value (µg/mL) — number only.

1) CC(=O)NC[C@H]1CN(c2ccc(N3CCOCC3)c(F)c2)C(=O)O1 ... 2.5
2) O=c1[nH]c(Cc2ccc(Cl)cc2Cl)cn1Cc1nc2ccc(F)nc2[nH]1 [Compound 1962, reference compound] ... 1.25
3) Fc1ccc2nc(NCCCN[C@@H]3CCNc4c(Cl)cc(Cl)cc43)[nH]c2n1 [Compound 1717, reference compound] ... 0.039
4) CCn1c(Cc2ccc(OC)cc2Cl)cn(Cc2nc3nc(F)ccc3[nH]2)c1=O ... 0.078
5) COc1cc(Cl)c(-c2cccc3nc(Cc4nc5nc(Cl)ccc5[nH]4)cn23)cc1OC ... 0.0195

Field: next compound
**Query** Give the reported MIC for Oc1cc(NCCCNCc2cc(Cl)cc(Cl)c2)nc2ccccc12 (system: E. faecium (ATCC 19434)).
**Result** 0.156
